Exercise: state measured IC50 for each of the compounds provided.
biological target: ACE (Oryctolagus cuniculus, UniProt P12822); construct: purchased Sigma A 6778; experiment: ACE-inhibitory activity, Cushman and Cheung method (hippuric acid from HHL); format: biochemical; settings: synthesized peptides
Sequence (P12822 34-1310): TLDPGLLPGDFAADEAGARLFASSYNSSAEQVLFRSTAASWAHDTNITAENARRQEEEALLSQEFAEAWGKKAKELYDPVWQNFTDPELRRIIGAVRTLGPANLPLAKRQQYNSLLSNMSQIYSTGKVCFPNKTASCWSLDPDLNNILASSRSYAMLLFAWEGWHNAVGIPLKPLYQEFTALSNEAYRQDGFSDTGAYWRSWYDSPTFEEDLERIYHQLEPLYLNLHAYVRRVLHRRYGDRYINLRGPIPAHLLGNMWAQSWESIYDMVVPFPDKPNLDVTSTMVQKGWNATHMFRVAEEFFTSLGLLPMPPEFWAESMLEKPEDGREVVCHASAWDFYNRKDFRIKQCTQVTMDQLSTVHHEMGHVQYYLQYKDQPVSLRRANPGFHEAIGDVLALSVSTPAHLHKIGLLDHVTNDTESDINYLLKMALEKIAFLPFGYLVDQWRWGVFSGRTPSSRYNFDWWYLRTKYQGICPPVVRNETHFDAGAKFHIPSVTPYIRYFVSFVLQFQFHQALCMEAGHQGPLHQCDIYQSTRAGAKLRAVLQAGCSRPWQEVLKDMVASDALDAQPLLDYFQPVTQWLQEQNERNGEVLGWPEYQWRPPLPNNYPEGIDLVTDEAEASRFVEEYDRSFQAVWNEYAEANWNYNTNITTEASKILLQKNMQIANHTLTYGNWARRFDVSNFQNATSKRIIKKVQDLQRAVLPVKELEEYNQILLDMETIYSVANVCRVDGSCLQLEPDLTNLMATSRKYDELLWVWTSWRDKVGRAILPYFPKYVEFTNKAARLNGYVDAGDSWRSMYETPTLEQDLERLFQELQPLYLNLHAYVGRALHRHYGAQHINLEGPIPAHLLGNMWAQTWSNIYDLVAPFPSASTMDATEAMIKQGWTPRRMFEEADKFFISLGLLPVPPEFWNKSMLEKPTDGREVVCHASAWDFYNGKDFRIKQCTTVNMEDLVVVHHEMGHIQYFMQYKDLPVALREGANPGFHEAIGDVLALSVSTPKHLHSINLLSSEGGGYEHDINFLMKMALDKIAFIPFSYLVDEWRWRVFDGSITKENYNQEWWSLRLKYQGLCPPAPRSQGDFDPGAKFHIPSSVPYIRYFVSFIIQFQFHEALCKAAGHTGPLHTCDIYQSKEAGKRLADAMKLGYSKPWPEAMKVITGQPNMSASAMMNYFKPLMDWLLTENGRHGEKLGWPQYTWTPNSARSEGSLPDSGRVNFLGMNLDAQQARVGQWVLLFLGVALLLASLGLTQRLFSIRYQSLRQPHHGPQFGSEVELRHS
Peptide text beside a SMILES is read from it.
Numbers only, in µM.

- compound: "CC(C)C[C@H](NC(=O)[C@@H](N)Cc1ccccc1)C(=O)O [FL] (H-Phe-Leu-OH)"
  IC50 (µM): 380
- compound: "CC(C)C[C@H](N)C(=O)N[C@@H](Cc1ccccc1)C(=O)O [LF] (H-Leu-Phe-OH)"
  IC50 (µM): 460

Summary for this compound, CC(C)C[C@H](N)C(=O)N[C@@H](CC(N)=O)C(=O)N[C@@H](C)C(=O)O [LNA*] (H-Leu-Asn-Ala-OH) : IC50 is 200

* * *

target: ACE (Oryctolagus cuniculus); construct: purchased Sigma A 6778; assay: ACE-inhibitory activity, Cushman and Cheung method (hippuric acid from HHL); assay type: biochemical; details: synthesized peptides
Peptide text beside a SMILES is read from it.
property label: IC50

I would be grateful if you could provide IC50 for each of the following entries.
1. CC(C)C[C@H](N)C(=O)N[C@H](C(=O)N[C@@H](C)C(=O)N[C@@H](CCCCN)C(=O)O)C(C)C [LVAK] (H-LVAK-OH)
2. CC(C)C[C@H](N)C(=O)N[C@@H](Cc1ccc(O)cc1)C(=O)N[C@@H](CCCCN)C(=O)O [LYK] (H-Leu-Tyr-Lys-OH)
3. CC(C)C[C@H](NC(=O)[C@H](CC(C)C)NC(=O)[C@@H](N)CC(C)C)C(=O)N[C@@H](CCCCN)C(=O)O [LLLK] (H-LLLK-OH)

output:
> 300 µM
250 µM
> 300 µM

With ACE (Oryctolagus cuniculus) as the test system, CC(C)C[C@H](NC(=O)[C@H](C)N)C(=O)N1CCC[C@H]1C(=O)N[C@@H](Cc1c[nH]cn1)C(=O)O [ALPH] (H-ALPH-OH) showed IC50 of > 300 µM

* * *

What IC50 was measured for each of the following?
target: ACE (Oryctolagus cuniculus, UniProt P12822); construct: purchased Sigma A 6778; experiment: ACE-inhibitory activity, Cushman and Cheung method (hippuric acid from HHL); type: biochemical; details: synthesized peptides
Peptide text beside a SMILES is read from it.
Answers are plain numbers, in µM.

- compound: "CC(C)C[C@H](NC(=O)[C@@H](N)CCCCN)C(=O)N1CCC[C@H]1C(=O)O [KLP] (H-Lys-Leu-Pro-OH)"
  measurement target: "ACE (Oryctolagus cuniculus, UniProt P12822)"
  quantitative readout: 200

Please look at the following compound next.
Param item: CC(C)C[C@H](N)C(=O)N[C@H](C(=O)N[C@@H](CCCCN)C(=O)O)C(C)C [LVK] (H-Leu-Val-Lys-OH) ; param system: ACE (Oryctolagus cuniculus, UniProt P12822); output IC50: 225
